Read-out: Alpha-fetoprotein (AFP) gene, AFP (gene 174)
assayProcedure: LTEA_HepaRG_AFP: Life Technologies and Expression Analysis (LTEA) Assay for Alpha-fetoprotein (AFP) gene using HepaRG (AID 2283472)
testParameters: mRNA level, 48 h; actives raise or lower the signal
Calls of active or inactive are those of the source. The calls were made as follows: active = hit-call score of the fitted dose curve at least 0.9, where 1 is the maximum; inactive = score below 0.9.
Can you answer with just one of these options? class 1 for active, class 0 for inactive

input: Answer briefly: the call reported for `CCCCc1nc2cccnc2n1Cc1ccc(-c2ccccc2-c2nnn[nH]2)cc1` in this assay.
output: class 1

input: Now consider Cc1c(C)c2c(c(C)c1O)CCC(C)(COc1ccc(CC3SC(=O)NC3=O)cc1)O2 (stereo unspecified) .
output: class 1

input: Again, but for CCCCC(CC)COP(=O)(OCC(CC)CCCC)OCC(CC)CCCC (stereo unspecified)
output: class 0

input: Would you mind doing C#CC(O)C(CC)CCCC (stereo unspecified) as well?
output: class 0

input: Ok, now `Nc1nc(=S)c2[nH]cnc2[nH]1`
output: class 1

input: Also `NCCOCCOCCN` ?
output: class 0

input: Likewise for `CCCCCCCCCCCCCCOS(=O)(=O)O` ?
output: class 1

input: Thanks! And `COc1ccc(OC(F)(F)F)cc1CN[C@H]1CCCN[C@H]1c1ccccc1` ?
output: class 1

input: Request: `CC(=O)O`
output: class 0

input: Item: `Cc1ccc(C(C)(C)C)c(O)c1`
output: class 0

input: // same read-out, input: `CN(C)C(=O)NC1(c2ccccc2)CCN(CC[C@@]2(c3ccc(F)c(F)c3)CN(C(=O)c3ccccc3)CCO2)CC1`
output: class 1

====

Read-out: CFLAR gene, CFLAR (gene 8837)
assayProcedure: LTEA_HepaRG_CFLAR: Life Technologies and Expression Analysis (LTEA) Assay for CFLAR gene using HepaRG (AID 2283455)
testParameters: mRNA level, 48 h; actives raise or lower the signal
Activity calls are given as the source filed them. How the source made its calls: active means hit-call score of the fitted dose curve at least 0.9, where 1 is the maximum; inactive means score below 0.9.
Result category, one only: 1 = active, -1 = inactive

input: Can you look up the reported call for Cc1c(C)c2c(c(C)c1O)CCC(C)(COc1ccc(CC3SC(=O)NC3=O)cc1)O2 (configuration not stated) for me?
output: -1

input: Try this compound too: CCC(C)N(C)C(=O)c1cc2ccccc2c(-c2ccccc2Cl)n1 (configuration not stated)
output: -1

input: Another compound to check: `COc1ccc(OC(F)(F)F)cc1CN[C@H]1CCCN[C@H]1c1ccccc1`
output: 1

input: `CC(=O)OCC(COC(C)=O)OC(C)=O` , same question.
output: -1

input: Then CCCCC(CC)COC(=O)CCCCCCCC(=O)OCC(CC)CCCC (configuration not stated) ?
output: -1

input: Record: `C/C=C/c1ccc(OC)cc1`
output: -1

input: How about `C=CCc1ccc(OC)c(OC)c1` ?
output: -1

input: What about `CCCCCCCCCCCCCCOS(=O)(=O)O` ?
output: -1

input: Quick one: `CCCC[C@H]1CN(CC2CCOCC2)C(=O)OC12CCN(C1(C)CCN(C(=O)c3c(C)ncnc3C)CC1)CC2`
output: -1

input: // next record `NC=O`
output: -1

input: How about CC(C)NCC(O)c1ccc(O)c(O)c1 (configuration not stated) ?
output: 1

input: Also, `COc1ccc(C(=O)Nc2nc3ccccc3c(NCc3ccccc3)c2C#N)cc1` please.
output: -1

input: Moving on to `O=C(NS(=O)(=O)/C=C/c1cccs1)c1ccc(F)cc1Br`
output: -1

input: Consider next the compound `COC(=O)CCCC(=O)OC` in the same way.
output: -1

input: Further, for `CC(=O)O[C@]1(C(C)=O)CC[C@H]2[C@@H]3C=C(Cl)C4=CC(=O)[C@@H]5C[C@@H]5[C@]4(C)[C@H]3CC[C@@]21C` ?
output: 1

input: Query `O=C1O[C@H]([C@H](O)CO)C(O)=C1O` next
output: -1

input: Next entry: `CC(=O)S[C@H](C(=O)N[C@H]1Cc2ccccc2[C@H]2CCC[C@@H](C(=O)O)N2C1=O)C(C)C`
output: -1
